Molecular target: Alpha-ketoglutarate-dependent dioxygenase FTO (Homo sapiens, UniProt Q9C0B1)
Sequence (Q9C0B1 whole entry): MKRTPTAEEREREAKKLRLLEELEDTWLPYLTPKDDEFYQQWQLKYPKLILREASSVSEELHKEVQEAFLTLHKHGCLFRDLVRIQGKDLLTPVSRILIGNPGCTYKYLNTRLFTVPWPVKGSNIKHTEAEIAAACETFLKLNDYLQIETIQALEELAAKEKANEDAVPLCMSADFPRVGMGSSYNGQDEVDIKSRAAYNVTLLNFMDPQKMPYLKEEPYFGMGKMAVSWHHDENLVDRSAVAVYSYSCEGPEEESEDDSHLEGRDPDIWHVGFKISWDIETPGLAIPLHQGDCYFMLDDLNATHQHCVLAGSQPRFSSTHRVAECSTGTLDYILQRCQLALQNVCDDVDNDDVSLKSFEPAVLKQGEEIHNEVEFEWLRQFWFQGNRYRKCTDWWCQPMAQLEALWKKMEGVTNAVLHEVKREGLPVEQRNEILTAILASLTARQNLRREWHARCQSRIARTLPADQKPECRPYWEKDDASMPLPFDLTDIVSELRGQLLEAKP
Experiment: Inhibition of full length human FTO expressed in Escherichia coli BL21(DE3) rosetta by HPLC analysis
pIC50: −log10 of the molar value.

chemical-string: O=C(O)c1ccnc(C(=O)NS(=O)(=O)c2ccc(C(F)(F)F)cc2)c1
pIC50: 5.59

----------
Target: UniProt:Q9C0B1
Assay: Displacement of dm6A-containing ssDNA from truncated N-terminal his-tagged human FTO (31 residues) mediated demethylation activity expressed in Escherichia coli BL21(DE3) using ssDNA (5'-ATTGTCA(dm6A)CAGCAGA-FAM-3') as substrate by fluorescence polarization assay
pIC50: −log10 of the molar value.
quantity-measured: pIC50

chemical-string: Cc1ccc(Cl)c(Nc2ccccc2C(=O)O)c1Cl
quantity-measured: pIC50
readout-value: 4.76
